Experiment notes: Cmax in CD-1 mouse large intestine at 5 mg/kg, iv after 10 to 1440 mins by LC/MS analysis
Type: ADME, organism-based
Design: dose 5 mg/kg, route intravenous
Measured property: Cmax (ng/g)
Use ng/g as the unit, but write only the number.

IN: // Cmax lookup, key: CC1CCN(C2CCN(S(=O)(=O)c3ccc(OC(F)F)cc3)CC2)CC1
OUT: 1820

---

Experiment notes: Cmax in CD-1 mouse large intestine at 20 mg/kg, po after 10 to 1440 mins by LC/MS analysis
Type: ADME, organism-based
Design: dose 20 mg/kg, route oral
Measured property: Cmax (ng/g)
Note: unit ng/g is implicit; provide only the numeric part.

IN: Which Cmax value is on record for CC1CCN(C2CCN(S(=O)(=O)c3ccc(OC(F)F)cc3)CC2)CC1 ?
OUT: 3250

---

Experiment notes: Ratio of drug level in lung to plasma of CD-1 mouse at 5 mg/kg, iv
Assay type: ADME, organism-based
Measured property: Kp
Just the number, please.

IN: Kp for CC1CCN(C2CCN(S(=O)(=O)c3ccc(OC(F)F)cc3)CC2)CC1 ?
OUT: 5.7

---

Overview of reported Tmax across a group of compounds:
Experiment notes: Tmax in CD-1 mouse large intestine at 10 mg/kg, ip after 10 to 1440 mins by LC/MS analysis
Format: ADME, organism-based
Give the figure together with its unit, number first.

Example cases with answers are listed next.
COc1ccc(S(=O)(=O)N2CCC(N3CCC(C)CC3)CC2)cc1
10 min
CC1CCN(C2CCN(S(=O)(=O)c3ccc(OC(F)F)cc3)CC2)CC1
10 min

IN: Requested read-out: Tmax. Entry: C#CCC1CCN(C2CCN(S(=O)(=O)c3ccc(Br)cc3)CC2)CC1
OUT: 10 min
